B1: PHTF1 (parent)
chain: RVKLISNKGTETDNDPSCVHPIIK

Variants of: B1
Assay: protein stability index of a GFP-peptide fusion (GPS, HEK-293T) (PSI 1-6); higher = more stable;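 also: lentivirally expressed fusions sorted by FACS into six bins by GFP to DsRed ratio, PSI derived from sequencing read proportions per bin multiplied by bin number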
Details: c terminus: a fixed tail appended
measured-attribute: protein stability index
Just the number, please.

I would be grateful if you could share the reported protein stability index for G9Y .
3.44

I would be grateful if you could share the reported protein stability index for S17V .
4.16

I would be grateful if you could share the reported protein stability index for I23K .
4.74

I would be grateful if you could share the reported protein stability index for N14R .
3.71

I would be grateful if you could share the reported protein stability index for V2Q .
4.65

I would be grateful if you could share the reported protein stability index for D15C .
3.09

I would be grateful if you could share the reported protein stability index for S17R .
3.99

I would be grateful if you could share the reported protein stability index for K24R .
4.09

I would be grateful if you could share the reported protein stability index for D13W .
2.48

I would be grateful if you could share the reported protein stability index for V19Y .
3.86

I would be grateful if you could share the reported protein stability index for N7P .
4.09

I would be grateful if you could share the reported protein stability index for K8H .
3.94

I would be grateful if you could share the reported protein stability index for D15S .
3.9

I would be grateful if you could share the reported protein stability index for P16H .
3.88

I would be grateful if you could share the reported protein stability index for P21G .
4.08

I would be grateful if you could share the reported protein stability index for K24E .
4.13
